B1: MYOZ1 (parent)
chain: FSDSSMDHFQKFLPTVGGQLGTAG

- Variants of: B1
- ASSAY_COMMENT: protein stability index of a GFP-peptide fusion (GPS, HEK-293T) (PSI 1-6); higher = more stable;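 note: lentivirally expressed fusions sorted by FACS into six bins by GFP to DsRed ratio, PSI derived from sequencing read proportions per bin multiplied by bin number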
- CONDITION_SUMMARY: c terminus: a fixed tail appended
Criterion: protein stability index meeting or surpassing 2. Met: True. Not met: False.

Solved entries (count: 5):
# MUTATION_NOTATION, CLASS_LABEL
data = [
    ("K11W", "False"),
    ("M6H", "True"),
    ("K11T", "True"),
    ("L20C", "False"),
    ("D3W", "True"),
]

query: Could you verify whether the entry `L20M` shows protein stability index of no less than 2?
result: True

query: Then `G21H` ?
result: True

query: Then `S2D` ?
result: True
